Molecular target: T1, his-tagged human TIGIT (Acro Biosystems #TIT-H52H3) (human, UniProt Q495A1 22-141)
T1 construct: Bought protein; also called His-tagged-TIGIT (human); not shown: his tag
T1 sequence (looked up): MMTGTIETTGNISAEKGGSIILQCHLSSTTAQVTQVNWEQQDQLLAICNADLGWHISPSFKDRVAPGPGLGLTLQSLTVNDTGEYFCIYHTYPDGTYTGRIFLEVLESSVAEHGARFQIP
Assay: ELISA, coated His-TIGIT, 1 ug/ml
reported-endpoint: Elisa OD450 (OD450)
Supply the numeric figure in OD450, leaving out any unit text.

43586p2.G02 (scFv, V domains shown) VH: EVQLLESGGGLVQPGGSLRLSCAASGFTFSSYWMNWVRQAPGKGLEWVSGIYSGGTTYYADSVKGRFTISRDNSKNTLYLQMNSLRAEDTAVYYCTRENWKENNAMDVWGQGTTVTVSS VL: QSVLTQPPSASGTPGQRVTISCSGVTSNIASYHVYWYQQLPGTAPKLLIYLNSQRPSGVPDRFSASKSGTSASLAISGLQSEDEADYYCATWDGSQNGWVFGGGTKLTVL
1.88
43645p1.H10 (scFv, V domains shown) VH: EVQLLESGGGLVQAGGSLRLSCAASGFTFDDYVMTWVRQAPGKGLEWVSLINWSGDRTYYADSVKGRFTISRDNSKNTLYLQMNSLRAEDTAVYYCVKHNLNYYYGMDVWGQGTTVTVSS VL: QSVLTQPPSVSGTPGQRVTISCSGTISNVGNKYVSWYQQVPGTAPKLLIDYNQRPSGVPDRFSGSQSGTSASLTISGLQSEDEADYYCATWDDSLKGWVFGGGTKLTVL
2

--- query ---
input: // returns reported Elisa OD450 for input 43645p1.F12 (scFv, V domains shown) VH: EVQLLESGGGLVQPGGSLRLSCAASGFTFSDYWMSWVRQAPGKGLEWVSSINWNGDNTYYYADSVKGRFTISRDNSKNTLYLQMNSLRAEDTAVYYCAKSHTVLQYGMDVWGQGTTVTVSS VL: QSVLTQPPSASGTPGQRVTISCSGSSSNIQSNYVYWYQQLPGTAPKLLIYGNHQRPSGVPDRFSGSKSDTSASLAISGLQSEDEADYYCATWDASLNVWVFGGGTKLTVL
output: 0.477
